- Species on record: Mus musculus
- protocol: Percent inhibition of [3H]colchicine binding to tubulin with molar ratio of 1:10 (inhibitor: [3H]colchicine)
- Type: functional
assay-readout: Inhibition (%)

| compound | readout-value |
| --- | --- |
| COc1cc2c(c(OC)c1OC)-c1ccc(I)c(=O)cc1[C@@H](NC(C)=O)CC2 | 98.3 |
| COc1cc2c(c(OC)c1OC)-c1ccc(OC)c(=O)cc1[C@@H](NC(C)=O)CC2 [COLCHICINE] | 89.7 |
| COc1cc2c(c(OC)c1OC)-c1ccc(-c3ccccc3)c(=O)cc1[C@@H](NC(C)=O)CC2 | 25.6 |
| CCOc1ccc2c(cc1=O)[C@@H](NC(C)=O)CCc1cc(OC)c(OC)c(OC)c1-2 | 75 |
| COc1cc2c(c(OC)c1OC)-c1ccc(F)c(=O)cc1[C@@H](NC(C)=O)CC2 | 50.2 |
| COc1cc2c(c(OC)c1OC)-c1ccc(C(C)(C)C)c(=O)cc1[C@@H](NC(C)=O)CC2 | 69.4 |
| CCCc1ccc2c(cc1=O)[C@@H](NC(C)=O)CCc1cc(OC)c(OC)c(OC)c1-2 | 89.2 |
| COc1cc2c(c(OC)c1OC)-c1ccc(CC(C)C)c(=O)cc1[C@@H](NC(C)=O)CC2 | 36.7 |
| COc1cc2c(c(OC)c1OC)-c1ccc(N=[N+]=[N-])c(=O)cc1[C@@H](NC(C)=O)CC2 | 95.8 |
| CCCOc1ccc2c(cc1=O)[C@@H](NC(C)=O)CCc1cc(OC)c(OC)c(OC)c1-2 | 54.8 |
| CCc1ccc2c(cc1=O)[C@@H](NC(C)=O)CCc1cc(OC)c(OC)c(OC)c1-2 | 96.5 |
| COc1cc2c(c(OC)c1OC)-c1ccc(C)c(=O)cc1[C@@H](NC(C)=O)CC2 | 96.7 |
| COc1cc2c(c(OC)c1OC)-c1ccc(Br)c(=O)cc1[C@@H](NC(C)=O)CC2 | 97.4 |
| COc1cc2c(c(OC)c1OC)-c1cccc(=O)cc1[C@@H](NC(C)=O)CC2 [CHOLCHICIDE] | 53.7 |
| COc1cc2c(c(OC)c1OC)-c1ccc(C(C)C)c(=O)cc1[C@@H](NC(C)=O)CC2 | 90 |
| COc1cc2c(c(OC)c1OC)-c1ccc(OC(C)C)c(=O)cc1[C@@H](NC(C)=O)CC2 | 50.5 |
| CCC(C)c1ccc2c(cc1=O)[C@@H](NC(C)=O)CCc1cc(OC)c(OC)c(OC)c1-2 (some centres undefined) | 57.1 |
| CCCCc1ccc2c(cc1=O)[C@@H](NC(C)=O)CCc1cc(OC)c(OC)c(OC)c1-2 | 24.7 |
| COc1cc2c(c(OC)c1OC)-c1ccc(Cl)c(=O)cc1[C@@H](NC(C)=O)CC2 | 96.2 |

====

- Species: Mus musculus
- protocol: Concentration required to effect a 50% reduction in microtubule polymerization
- Format: functional
- protocol-conditions: read-out: I50
pIC50: −log10 of the molar value.
Listing of entries alongside the reported pIC50.
assay-readout: pIC50

| molecule | assay-readout | readout-value |
| --- | --- | --- |
| COc1cc2c(c(OC)c1OC)-c1ccc(-c3ccccc3)c(=O)cc1[C@@H](NC(C)=O)CC2 | pIC50 | 4.24 |
| COc1cc2c(c(OC)c1OC)-c1ccc(OC)c(=O)cc1[C@@H](NC(C)=O)CC2 [COLCHICINE] | pIC50 | 5.29 |
| COc1cc2c(c(OC)c1OC)-c1ccc(F)c(=O)cc1[C@@H](NC(C)=O)CC2 | pIC50 | 5.09 |
| COc1cc2c(c(OC)c1OC)-c1cccc(=O)cc1[C@@H](NC(C)=O)CC2 [CHOLCHICIDE] | pIC50 | 5.10 |
| CCOc1ccc2c(cc1=O)[C@@H](NC(C)=O)CCc1cc(OC)c(OC)c(OC)c1-2 | pIC50 | 5.21 |
| CCC(C)c1ccc2c(cc1=O)[C@@H](NC(C)=O)CCc1cc(OC)c(OC)c(OC)c1-2 (some centres undefined) | pIC50 | 5.00 |
| COc1cc2c(c(OC)c1OC)-c1ccc(Br)c(=O)cc1[C@@H](NC(C)=O)CC2 | pIC50 | 5.48 |
| COc1cc2c(c(OC)c1OC)-c1ccc(C(C)(C)C)c(=O)cc1[C@@H](NC(C)=O)CC2 | pIC50 | 5.38 |
| COc1cc2c(c(OC)c1OC)-c1ccc(C)c(=O)cc1[C@@H](NC(C)=O)CC2 | pIC50 | 5.39 |
| CCCCc1ccc2c(cc1=O)[C@@H](NC(C)=O)CCc1cc(OC)c(OC)c(OC)c1-2 | pIC50 | 4.59 |
| COc1cc2c(c(OC)c1OC)-c1ccc(CC(C)C)c(=O)cc1[C@@H](NC(C)=O)CC2 | pIC50 | 5.07 |
| CCCOc1ccc2c(cc1=O)[C@@H](NC(C)=O)CCc1cc(OC)c(OC)c(OC)c1-2 | pIC50 | 4.96 |
| CCCc1ccc2c(cc1=O)[C@@H](NC(C)=O)CCc1cc(OC)c(OC)c(OC)c1-2 | pIC50 | 5.46 |
| COc1cc2c(c(OC)c1OC)-c1ccc(Cl)c(=O)cc1[C@@H](NC(C)=O)CC2 | pIC50 | 5.43 |
| CCc1ccc2c(cc1=O)[C@@H](NC(C)=O)CCc1cc(OC)c(OC)c(OC)c1-2 | pIC50 | 5.38 |
| COc1cc2c(c(OC)c1OC)-c1ccc(C(C)C)c(=O)cc1[C@@H](NC(C)=O)CC2 | pIC50 | 5.38 |
| COc1cc2c(c(OC)c1OC)-c1ccc(N=[N+]=[N-])c(=O)cc1[C@@H](NC(C)=O)CC2 | pIC50 | 5.38 |
| COc1cc2c(c(OC)c1OC)-c1ccc(I)c(=O)cc1[C@@H](NC(C)=O)CC2 | pIC50 | 5.42 |
| COc1cc2c(c(OC)c1OC)-c1ccc(OC(C)C)c(=O)cc1[C@@H](NC(C)=O)CC2 | pIC50 | 4.64 |
